Entries and their IC50
Molecular target: RORγ (Homo sapiens)
Construct: expressed in transfected cells; host or cells: 293FT cells (Invitrogen), expression vector pFN26A (Promega)
Sequence (P51449 269-508 limits assumed): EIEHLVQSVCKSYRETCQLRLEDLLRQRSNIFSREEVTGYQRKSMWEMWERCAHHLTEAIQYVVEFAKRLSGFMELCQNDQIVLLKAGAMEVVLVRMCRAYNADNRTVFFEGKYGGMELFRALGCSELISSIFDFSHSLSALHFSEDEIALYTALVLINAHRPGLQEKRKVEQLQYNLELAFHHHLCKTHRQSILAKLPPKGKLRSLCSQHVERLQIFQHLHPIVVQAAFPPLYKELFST
Experiment: RORγ GAL4 reporter gene assay (luciferase readout)
Type: cell-based
Details: inhibition of RORγ (GAL4-RORγ-LBD) in 293FT cells, luciferase signal; read-out: mean pIC50 (converted)

Known IC50 results, listed for orientation:
{"columns": ["COMPOUND", "EXPERIMENTAL SYSTEM", "IC50"],
 "data": [
  ["COC(CC(C)(C)C)(c1ccc(C(=O)NCc2ccc(S(=O)(=O)CC3CC3)cc2)cc1)C(F)(F)F (stereo not shown) [Example 33]", "RORγ (Homo sapiens)", "≤ 100 nM"],
  ["CCOC(c1ccc(C(=O)NCc2ccc(S(=O)(=O)CC3CC3)cc2)cc1)(C(F)(F)F)C(F)(F)F [Example 23]", "RORγ (Homo sapiens)", "≤ 100 nM"],
  ["COC(c1ccc(C(=O)NCc2ccc(S(=O)(=O)NC3CC3)cc2)cc1)(C(F)(F)F)C(F)(F)F [Example 30]", "RORγ (Homo sapiens)", "≤ 1000 nM"]
]}

Query CCCCC(O)(c1ccc(C(=O)NCc2ccc(S(=O)(=O)CC3CC3)cc2)cc1)C(F)(F)F (stereo not shown) [Example 7] yields IC50 of ≤ 100 nM
